Target: human aromatase (Homo sapiens, UniProt P11511)
Construct: purchased Gentest (Woburn, Mass.)
Sequence (P11511 1-503): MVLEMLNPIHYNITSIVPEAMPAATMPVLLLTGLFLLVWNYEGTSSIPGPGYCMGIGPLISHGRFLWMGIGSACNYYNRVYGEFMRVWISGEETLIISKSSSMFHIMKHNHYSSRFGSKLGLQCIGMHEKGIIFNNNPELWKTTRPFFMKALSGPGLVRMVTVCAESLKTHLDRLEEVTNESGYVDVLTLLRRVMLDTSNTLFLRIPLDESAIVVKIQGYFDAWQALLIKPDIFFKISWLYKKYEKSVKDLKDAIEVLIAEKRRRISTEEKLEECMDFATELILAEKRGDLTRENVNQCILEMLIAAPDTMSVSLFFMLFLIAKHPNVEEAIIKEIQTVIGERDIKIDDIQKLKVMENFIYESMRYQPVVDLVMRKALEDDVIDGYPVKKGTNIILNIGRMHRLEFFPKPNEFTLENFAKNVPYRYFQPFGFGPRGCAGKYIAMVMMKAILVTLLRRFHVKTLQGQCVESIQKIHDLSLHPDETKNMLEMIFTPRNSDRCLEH
Experiment: human aromatase assay (Supersomes, DBF substrate, fluorescence)
Type: biochemical
Details: 10000 nM
REPORTED_PROPERTY: inhibition at 10 µM (%)

Use these answered entries as a reference point.
molecule="COc1cc(C#N)ccc1C1CCc2cncn21 (centres unmarked)" measured=100
molecule="COC(=O)C1(c2cc(OC)c(C#N)cc2OC)CCc2cncn21 (centres unmarked)" measured=98
molecule="C=Cc1cc(C#N)ccc1C1CCc2cncn21 (centres unmarked)" measured=95
molecule="N#Cc1ccc(C2CCCCc3cncn32)c(Cl)c1 (centres unmarked)" measured=100
molecule="N#Cc1ccc([C@@H]2C[C@H](Cc3ccc(F)cc3)Cc3cncn32)c(F)c1 (relative stereo)" measured=100

[P] Fc1ccc(C2CCCc3cncn32)c(-c2ccccc2)c1 (centres unmarked)
[Q] Cc1noc(C)c1-c1cc(C#N)ccc1C1CCCCc2cncn21 (centres unmarked)
(Q) Hey, between P and Q which has a smaller measured inhibition at 10 µM? Answer format: the label of the selected item.
(A) Q
(Q: 59%, P: 98%)

----------
molecular target: aldosterone synthase (Homo sapiens, UniProt P19099); assay: cellular aldosterone production in NCI-H295R cells stimulated with Ang II (RIA/SPA); details: human adrenocortical carcinoma NCI-H295R cells, 1 μM Ang II, 24 hr
Sequence (P19099 25-503): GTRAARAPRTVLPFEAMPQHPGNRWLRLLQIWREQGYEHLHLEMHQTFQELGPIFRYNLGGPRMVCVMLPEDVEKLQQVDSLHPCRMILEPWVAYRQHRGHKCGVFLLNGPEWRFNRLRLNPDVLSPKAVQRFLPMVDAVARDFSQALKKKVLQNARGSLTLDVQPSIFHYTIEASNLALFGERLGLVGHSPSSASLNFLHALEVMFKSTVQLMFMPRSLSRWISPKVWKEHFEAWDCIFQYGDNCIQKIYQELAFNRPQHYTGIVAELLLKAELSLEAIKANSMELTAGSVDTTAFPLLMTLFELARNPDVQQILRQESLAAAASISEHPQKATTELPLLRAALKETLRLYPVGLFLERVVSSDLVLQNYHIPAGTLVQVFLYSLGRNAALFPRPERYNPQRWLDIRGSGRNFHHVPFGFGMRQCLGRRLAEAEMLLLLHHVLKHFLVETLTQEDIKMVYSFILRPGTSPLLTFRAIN
pIC50: −log10 of the molar value.
REPORTED_PROPERTY: pIC50

Example molecules with recorded pIC50:
molecule="C=C1CC2(CCCCc3cncn32)c2ccc(C#N)cc21 (stereo not drawn)" measured=7.96
molecule="C=CCC1(c2ccc(C#N)cc2Br)CCCCc2cncn21 (stereo not drawn)" measured=7.49
molecule="COc1ccc(C2CCc3cncn32)cc1F (stereo not drawn)" measured=6.80
molecule="COC(=O)C1(c2ccc(C#N)cc2Cl)CCc2cncn21 (stereo not drawn)" measured=7.35

[P] Fc1ccc(C2CCCCc3cncn32)c(Br)c1 (stereo not drawn)
[Q] N#Cc1ccc(C2(C(=O)N3CCOCC3)CCc3cncn32)c(Cl)c1 (stereo not drawn)
(Q) Please compare: P and Q . Report which one has the smaller pIC50 value. // respond with label for picked entry
(A) Q

----------
target: aldosterone synthase (Homo sapiens, UniProt P19099); construct: host or cells: NCI-H295R; assay: cellular aldosterone production in NCI-H295R cells stimulated with Ang II (RIA/SPA); type: cell-based; details: human adrenocortical carcinoma NCI-H295R cells, 1 μM Ang II, 24 hr
pIC50: −log10 of the molar value.
REPORTED_PROPERTY: pIC50

compound="COc1cc(C#N)ccc1[C@@H]1C[C@@H](Cc2ccc(F)cc2)Cc2cncn21 (relative stereo)" measured=7.08

[A] Fc1ccc(C2CCCc3cncn32)c(-c2ccsc2)c1 (centres unmarked)
[B] CC1(c2ccc(C#N)cc2-c2ccccc2)CCCc2cncn21 (centres unmarked)
[C] COc1cc(C#N)ccc1C1(C(=O)OCCOC(C)C)CCc2cncn21 (centres unmarked)
(Q) Put the items in sequence by pIC50, from largest down. Show the ranking through the labels, in the order asked for.
(A) C, A, B
